Exercise: state measured cAMP production EC50 for each of the binders provided.
- SYSTEM_NAME: human glucagon receptor (human, UniProt P47871)
- PROTOCOL_DESCRIPTION: cell-based or functional assay
Starred links: 1 amine or outer side, 2 acyl side, 3 side chain; linkers in the order of their positions; H or OH if unused. Non-standard residues stand in square brackets, D forms with d. Groups on a side chain read outwards from the residue. Primed or numbered codes have the meaning given here. No end group written: not given here. *: point of attachment. C20 diacid = O=C(O)CCCCCCCCCCCCCCCCCCC(=O)*; C18 diacid = O=C(O)CCCCCCCCCCCCCCCCC(=O)*; γGlu = O=C(O)[C@H](CCC(=O)[*:2])N[*:1]; αMeF = C[C@](N)(Cc1ccccc1)C(=O)O; Myristoyl = CCCCCCCCCCCCCC(=O)*; PEG2′ = polyethylene glycol 2; αMeS = C[C@](N)(CO)C(=O)O; AEEA = NCCOCCOCC(=O)O; Aib = CC(C)(N)C(=O)O
Hi! Could you send only the number? It should be in nM, unit omitted.

### Prompt Sample H[Aib]QGTFTSDVSK[αMeF]LDSK([AEEA-AEEA-γGlu-C18 diacid])RARDFVRWLL[Aib]TE-OH (also: αMePhe at 23 (V)) [Peptide 166] — what was its cAMP production EC50?
### Response 0.27

### Prompt Continue with H[Aib]QGTFTSDVSK[αMeF]LETK([AEEA-AEEA-γGlu-C18 diacid])RARDFVQWLLE[Aib]G-OH [Peptide 445]
### Response 0.684

### Prompt Continue with H[Aib]QGTFTSDVSK[αMeF]LDTK([AEEA-AEEA-γGlu-γGlu-C20 diacid])RAQDFVAWLEAGG-OH [Peptide 413]
### Response 1.02

### Prompt Continue with H[Aib]QGTFTSDVSK[αMeF]LDKK([AEEA-AEEA-γGlu-C20 diacid])RAQDFVRWLLAE-NH2 [Peptide 460]
### Response 0.0665

### Prompt Continue with H[αMeS]QGS[αMeF]TSDVSKILDSK([PEG2′-PEG2′-γGlu-Myristoyl])AAQD[αMeF]VQ[Aib]IINT-NH2 [Peptide 135]
### Response 0.015
